# subjectOfTest: cyPD1 (cynomolgus monkey)
# testDescription: biosensor kinetics (BLI type); antibody captured on anti-human Fc biosensor, PD-1 in solution
endpoint: koff (s⁻¹)
Just the number in s⁻¹, nothing appended.

[in] Name the recorded koff for TA104 (antibody, V domains shown, Fc SEQ 587, CL SEQ 416) VH: DVQLVESGGGVARPGESLRLSCAASGFTFRDYDMGWVRQAPGEGLEWVSSISVSGTTYYADSVKGRFTISRDNSENTLYLQMNSLTAEDTAVYYCGREDTLFHYWGLGTLVTVSS VL: QSVLTQPPSASGTPGQRVTISCSGSTSNIGTRYVYWYQQLPGTAPKLLIYKNLQRPSGVPDRFSGSKSGTSASLAISGLQSEDEADYYCAAWDERLNGWVFGGGTKLTVL .
[out] 0.009
